Attribution: PubChem BioAssay (NCI)

Test system: IGROV1 ovarian
Assay: NCI-60 one-dose screen, 48 h
Conditions: 10 µM unless noted
This is part of a sample that, as a whole, favours compounds with a hit. Of some 83,000 tested, about 20% had one in any assay. Active and inactive are the calls of the source. How the source made its calls: active means growth percent below 10; inactive means the rest.
Classes used: active, inactive

INSERT INTO measurements (molecule, tested_target, cat) VALUES
  ('CNC(=O)c1cc(Oc2ccc3nc(NC(=O)Nc4ccc(Cl)c(Cl)c4)sc3c2)ccn1', 'IGROV1 ovarian', 'inactive'),
  ('Oc1c(I)cc(-c2nc3ccccc3s2)cc1CN(Cc1ccccn1)Cc1ccccn1', 'IGROV1 ovarian', 'active'),
  ('Cc1ccc(-c2nc(C#N)c(S(=O)(=O)NCCO)o2)cc1', 'IGROV1 ovarian', 'inactive'),
  ('O=C1OCC2=C1C(c1cccc(C(F)(F)F)c1)c1cc3c(cc1N2CCO)OCO3 (stereo not given)', 'IGROV1 ovarian', 'inactive'),
  ('CC/C(Cc1ccccc1)=C(\c1ccc(OCCN2CCCCCC2)cc1)c1ccc(OC(=O)NCc2ccccc2)cc1', 'IGROV1 ovarian', 'inactive'),
  ('O=C1OCC2=C1C(c1cccc(F)c1)c1cc3c(cc1N2CCO)OCO3 (stereo not given)', 'IGROV1 ovarian', 'inactive'),
  ('C/C(=C(/c1ccc(Cl)cc1)c1ccc(OCCCN(C)C)cc1)c1ccc(Cl)cc1', 'IGROV1 ovarian', 'inactive'),
  ('CSCCC(NC(=O)c1ccccc1)C(=O)N/N=C1\S/C(=C/c2ccc(Cl)cc2)C(=O)N1C (stereo not given)', 'IGROV1 ovarian', 'inactive'),
  ('COc1ccc(C2CC(c3ccc(Nc4nc(Nc5ccc(F)cc5)nc(Nc5ccc(F)cc5)n4)cc3)=NN2C(C)=O)cc1 (stereo not given)', 'IGROV1 ovarian', 'inactive'),
  ('N=C(N)c1ccc(-c2ccc(-c3ccc(F)cc3)s2)s1', 'IGROV1 ovarian', 'active'),
  ('O=C1Nc2ccc(F)cc2/C1=N/c1nnc(Sc2ccccc2)s1', 'IGROV1 ovarian', 'inactive'),
  ('CCOC(=O)c1c(C)nn(CC(O)c2ccccc2)c1NC(=O)Nc1cccc(F)c1 (stereo not given)', 'IGROV1 ovarian', 'inactive'),
  ('Cc1c2ccccc2nc2c1ccc1cccnc12', 'IGROV1 ovarian', 'inactive'),
  ('O=C(/C=C\c1ccco1)/C=C/c1ccco1', 'IGROV1 ovarian', 'inactive'),
  ('Cc1ccc(-c2csc(NC(=O)N3CCN(c4cc5c(cc4F)c(=O)c(C(=O)O)cn5C4CC4)CC3)n2)cc1', 'IGROV1 ovarian', 'inactive'),
  ('CCn1cc(C2=C(c3cn(C)c4ncccc34)C(=O)NC2=O)c2cccnc21', 'IGROV1 ovarian', 'inactive'),
  ('CC(=O)N/C(=C1/OC(C(O)C(O)C(O)CO)CN1C)[P+](c1ccccc1)(c1ccccc1)c1ccccc1 (stereo not given)', 'IGROV1 ovarian', 'inactive'),
  ('CCOC(=O)c1c(C)nc2c(c1N)CC(=O)N2Cc1cc(OC)c(OC)c(OC)c1', 'IGROV1 ovarian', 'inactive'),
  ('Cc1nn(-c2ccccc2)c(N2CCCCC2)c1/C=N/NC(=O)Cn1c(=O)sc2ccccc21', 'IGROV1 ovarian', 'inactive'),
  ('CCCCCCCCCCCCCCCCCCOc1ccccc1CC(=O)OCC[N+]1(C)CCOCC1', 'IGROV1 ovarian', 'active'),
  ('CC(C)(C)c1cc(C=Nc2cccc(C(F)(F)F)c2)c(O)c(C(C)(C)C)c1', 'IGROV1 ovarian', 'inactive'),
  ('Cc1ncc(C(=O)Nc2ccc(CN3CCN(C)CC3)c(C(F)(F)F)c2)cc1C#Cc1cnc(N)c2cnccc12', 'IGROV1 ovarian', 'active'),
  ('O=C(CCC(=O)c1nc2ncccc2[nH]1)NN1C(=O)CSC1c1ccc(Cl)cc1 (stereo not given)', 'IGROV1 ovarian', 'inactive'),
  ('O=C1NC(=O)c2c1c1c3ccccc3[nH]c1c1oc3ccc(F)cc3c21', 'IGROV1 ovarian', 'inactive'),
  ('N#Cc1c(-c2cccc([N+](=O)[O-])c2)cc(-c2ccc(Nc3nc(Nc4ccc(F)cc4)nc(Nc4ccc(F)cc4)n3)cc2)nc1N', 'IGROV1 ovarian', 'inactive'),
  ('CC1(C)O[C@H]2OC3CCC(=O)CC3(O)[C@H]2O1 (stereo not given in full)', 'IGROV1 ovarian', 'inactive'),
  ('C/C(=N\O)C(=O)NCCCCCC(=O)Nc1ccccc1', 'IGROV1 ovarian', 'inactive'),
  ('N=c1sc(Cc2cc(Cl)ccc2Cl)cn1CC(=O)c1ccccc1', 'IGROV1 ovarian', 'inactive'),
  ('O=C(Nc1cccc(NC(=O)C2CCCCC2)c1)c1ccccn1', 'IGROV1 ovarian', 'inactive'),
  ('COc1ncc2cc1NS(=O)(=O)c1cccc(c1)C(=O)NCC1=CC=C(S1)c1ncnc3c1SC2=C3C', 'IGROV1 ovarian', 'active'),
  ('COc1ccc(C(O)c2cc3c(N)c(C(=O)Nc4cccc(Cl)c4)sc3nc2C)cc1 (stereo not given)', 'IGROV1 ovarian', 'inactive'),
  ('O=C(Nc1ccccc1O)c1ccccc1Nc1ccnc(C(F)(F)F)c1', 'IGROV1 ovarian', 'inactive'),
  ('Cc1cc2oc(=O)cc(CP(=O)(O)O)c2cc1O', 'IGROV1 ovarian', 'inactive'),
  ('Cc1ccc(C)c(-n2c(-c3ccc(Br)cc3)csc2=NC(=O)c2ccccc2F)c1', 'IGROV1 ovarian', 'inactive'),
  ('COc1ccc(/C=C/C(=O)c2ccc(NC(=O)CSc3nnc(-c4cc(-c5ccccc5)nc5ccccc45)n3-c3ccccc3)cc2)cc1', 'IGROV1 ovarian', 'inactive'),
  ('CC(C)CSc1oc(-c2ccccc2)nc1S(=O)(=O)c1ccccc1', 'IGROV1 ovarian', 'inactive'),
  ('O=C1/C(=C/c2cccc([N+](=O)[O-])c2)COc2ccc(O)cc21', 'IGROV1 ovarian', 'inactive'),
  ('Cc1cscc(C)c1=S', 'IGROV1 ovarian', 'inactive'),
  ('O=C(Cn1cc(CN2C(=O)c3ccccc3S2(=O)=O)nn1)Nc1cccc(Cl)c1', 'IGROV1 ovarian', 'inactive'),
  ('CC(C)=CC(=O)N[C@@H]1CC2CCC3C(CC[C@@]4(C)C3CC[C@@H]4C(C)N(C)C)[C@@]2(C)C[C@@H]1O (stereo not given in full)', 'IGROV1 ovarian', 'inactive');
